assay: Fraction unbound in rat serum; format: ADME, cell-free
observationType: fraction unbound
Returns: the value as a bare number; no unit string appended.

Return fraction unbound for the following compound: `C[C@@H](N1CN([C@H]2c3ccccc3CSc3cccc(Cl)c32)n2ccc(=O)c(O)c2C1=O)C(F)(F)F`
0.00589

Return reported fraction unbound. Input compound: `C[C@@H](N1CN([C@H]2c3ccccc3CSc3cc(Cl)ccc32)n2ccc(=O)c(O)c2C1=O)C(F)(F)F`
0.00303

Tell me fraction unbound reported for `C[C@@H](N1CN([C@H]2c3ccccc3CSc3c(F)cccc32)n2ccc(=O)c(O)c2C1=O)C(F)(F)F`
0.00574

Provide one value: measured fraction unbound of `C[C@@H](N1CN([C@H]2c3ccccc3SCc3cccc(Cl)c32)n2ccc(=O)c(O)c2C1=O)C(F)(F)F`
0.0179

Please give measured fraction unbound of the following entry: [2H]C([2H])([2H])C([2H])(N1CN(C2c3ccccc3CSc3ccccc32)n2ccc(=O)c(O)c2C1=O)C([2H])([2H])[2H] (stereo unspecified)
0.0601

Please report fraction unbound for the following compound: `C[C@@H](N1CN([C@@H]2c3ccccc3SCc3c2ccc(F)c3F)n2ccc(=O)c(O)c2C1=O)C(F)(F)F`
0.00411

Please give measured fraction unbound of the following entry: `C[C@@H](N1CN([C@H]2c3ccccc3CSc3c(Cl)cccc32)n2ccc(=O)c(O)c2C1=O)C(F)(F)F`
0.00329

Check the records and state fraction unbound for `C[C@@H](N1CN([C@@H]2c3ccccc3SCc3c(Cl)cccc32)n2ccc(=O)c(O)c2C1=O)C(F)(F)F`
0.00293

Please give the documented fraction unbound of COCC(C)N1CN(C2c3ccccc3CSc3ccccc32)n2ccc(=O)c(O)c2C1=O (stereo unspecified)
0.106

Quick one: give measured fraction unbound for `C[C@@H](N1CN([C@H]2c3ccc(Cl)cc3CSc3ccccc32)n2ccc(=O)c(O)c2C1=O)C(F)(F)F`
0.00117

Tell me measured fraction unbound for `C[C@@H](N1CN([C@H]2c3ccccc3CSc3ccc(F)cc32)n2ccc(=O)c(O)c2C1=O)C(F)(F)F` please.
0.00975

* * *

experiment: Clearance in iv dosed rat by LC/MS/MS analysis; assay type: ADME, organism-based; conditions: in vivo
Listing: clearance of selected molecules
Note: unit mL/min/kg is implicit; provide only the numeric part.

# example entries with known answers
C[C@@H](N1CN([C@@H]2c3ccccc3SCc3cccc(F)c32)n2ccc(=O)c(O)c2C1=O)C(F)(F)F ... 18
C[C@@H](N1CN([C@@H]2c3ccccc3SCc3c(F)cccc32)n2ccc(=O)c(O)c2C1=O)C(F)(F)F ... 8.37

Answer with the recorded clearance for the molecule listed here: `C[C@@H](N1CN([C@H]2c3ccccc3CSc3c(Cl)cccc32)n2ccc(=O)c(O)c2C1=O)C(F)(F)F`
6.78

Give clearance for O=C1c2c(O)c(=O)ccn2N(C2c3ccccc3CSc3ccccc32)CN1C(CF)CF (centres undefined)
33.5

* * *

assay: Clearance in iv dosed rat by LC/MS/MS analysis; assay type: ADME, organism-based; settings: in vivo
Quick rule: clearance of at least 10 mL/min/kg means MET, below that means NOT MET.

C[C@@H](N1CN([C@H]2c3ccccc3CSc3ccccc32)n2ccc(=O)c(O)c2C1=O)C(F)(F)F ... MET
C[C@@H](N1CN([C@@H]2c3ccccc3SCc3c(Cl)cccc32)n2ccc(=O)c(O)c2C1=O)C(F)(F)F ... NOT MET
C[C@@H](N1CN([C@H]2c3ccccc3CSc3cccc(F)c32)n2ccc(=O)c(O)c2C1=O)C(F)(F)F ... NOT MET
C[C@@H](N1CN([C@H]2c3ccccc3CSc3ccc(F)cc32)n2ccc(=O)c(O)c2C1=O)C(F)(F)F ... MET

Reported clearance reaches at least 10 mL/min/kg for `C[C@@H](N1CN([C@H]2c3ccccc3CSc3c(F)cccc32)n2ccc(=O)c(O)c2C1=O)C(F)(F)F` ?
MET

src = ChEMBL document CHEMBL4699501
